Reference for the values: patent US9708314B2

Let's look at some molecules and their measured melting point.
experimental-endpoint: melting point

molecule: CSc1nnc2c(C(=O)Nc3nnc(C)o3)ccc(C(F)(F)F)n12 [1-018]
experimental-endpoint: melting point
measurement: 230 to 233 °C
--
molecule: Cc1nnc(NC(=O)c2ccc(C(F)(F)F)n3c(Cl)nnc23)o1 [1-013]
experimental-endpoint: melting point
measurement: 238 to 241 °C
--
molecule: CC(C)c1nnc2c(C(=O)Nc3nnnn3C)ccc(Cl)n12 [2-004]
experimental-endpoint: melting point
measurement: 189 to 190 °C
--
molecule: Cc1nonc1NC(=O)c1ccc(C(F)(F)F)n2c(C(C)C)nnc12 [3-001]
experimental-endpoint: melting point
measurement: 185 to 186 °C
--
molecule: CC(C)c1nnc2c(C(=S)Nc3nnnn3C)ccc(C(F)(F)F)n12 [2-039]
experimental-endpoint: melting point
measurement: 198 to 200 °C
--
molecule: COCc1nnc2c(C(=O)Nc3nnnn3C)ccc(C(F)(F)F)n12 [2-010]
experimental-endpoint: melting point
measurement: 205 to 209 °C
--
molecule: Cc1nnc(NC(=O)c2ccc(C(F)(F)F)n3c(C(C)C)nnc23)o1 [1-004]
experimental-endpoint: melting point
measurement: 176 to 178 °C
